biological target: exonuclease-inactivated E. faecium PolC (Exo^null, PolC^D431A+E433A) (Enterococcus faecium, UniProt A0A9X4B319, D429A/E431A); test: Real-time DNA primer extension assay; type: biochemical; settings: IC50, Fig. 1e; inhibitor 2.5-100 μM; n = 3, ± SEM
# key: entry, value: IC50
Dear colleague, please return just the value in µM, with no unit written.

SMILES_TEXT | QUANTITY_UNIT | IC50
O=c1[nH]c(NCc2ccc3c(c2)OC(F)(F)O3)nc2c(F)nn(CCO)c12 | µM | 5.8

Shift focus to the following entry.
Which IC50 value is on record for O=c1[nH]c(NCc2ccc(Cl)c(Cl)c2)nc2ncn(CCN3CCOCC3)c12 ?
12.3
